- Target System: hMCL-1 172-327 (Homo sapiens, UniProt Q07820)
- Construct: 172-327 was expressed; His-SUMO (N, cleaved yes); made in house
- Sequence (Q07820 172-327): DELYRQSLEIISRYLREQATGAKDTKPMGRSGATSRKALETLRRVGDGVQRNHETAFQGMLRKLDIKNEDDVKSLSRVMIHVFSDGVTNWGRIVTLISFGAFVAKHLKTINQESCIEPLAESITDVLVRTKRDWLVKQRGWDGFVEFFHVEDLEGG
- Assay Info: Fluorescence anisotropy competition assay, FITC-Ahx-BIM75–85 tracer / MCL-1
- Type: binding
Readout Name: IC50 (nM)

Substance	Result Number
Ac-AAQWRRIGDKVNLRQKLLN-NH2 [NOXA75–93L78W]	2200
Ac-AAQFRRIGDKVNLRQKLLN-NH2 [NOXA75–93L78F]	2700
